Data origin, for the record: ChEMBL document CHEMBL4382234

Test system: Mycobacterium tuberculosis
assay info: Antimycobacterial activity against Mycobacterium tuberculosis H37Rv after 3 to 7 days by rapid direct susceptibility test
Assay type: functional
Let's look at some compounds and their measured MIC.

Study these solved cases before continuing.
NC(=S)N/N=C1/C(=O)N(CCCN2CCN(c3cc4c(cc3F)c(=O)c(C(=O)O)cn4C3CC3)CC2)c2ccccc21
0.1 to 64 µg/mL
Cc1ccc2c(c1)/C(=N\NC(N)=O)C(=O)N2CCCN1CCN(c2cc3c(cc2F)c(=O)c(C(=O)O)cn3C2CC2)CC1
0.1 to 64 µg/mL
CO[C@H]1/C=C/O[C@@]2(C)Oc3c(C)c(O)c4c(O)c(c(/C=N/N5CCN(C)CC5)c(O)c4c3C2=O)NC(=O)/C(C)=C\C=C\[C@H](C)[C@H](O)[C@@H](C)[C@@H](O)[C@@H](C)[C@H](OC(C)=O)[C@@H]1C [RIFAMPIN]
0.25 to 0.39 µg/mL
CCO/N=C1/C(=O)N(CCn2cc(CN3CCC[C@H]4CN(c5c(F)cc6c(=O)c(C(=O)O)cn(C7CC7)c6c5OC)C[C@H]43)nn2)c2ccccc21
0.1 to 0.78 µg/mL
CCO/N=C1/C(=O)N(CCn2cc(CN3CCC[C@H]4CN(c5c(F)cc6c(=O)c(C(=O)O)cn(C7CC7)c6c5OC)C[C@H]43)nn2)c2ccc(Br)cc21
0.1 to 0.78 µg/mL

Task: Report measured MIC on Mycobacterium tuberculosis; entry: COc1c(N2C[C@@H]3CCCN(Cc4cn(CCN5C(=O)/C(=N/O)c6cc(Br)ccc65)nn4)[C@@H]3C2)c(F)cc2c(=O)c(C(=O)O)cn(C3CC3)c12
Output: 0.1 to 0.78 µg/mL

Task: Report measured MIC on Mycobacterium tuberculosis; entry: COc1c(N2C[C@@H]3CCCN(Cc4cn(CCN5C(=O)/C(=N/NC(N)=O)c6ccccc65)nn4)[C@@H]3C2)c(F)cc2c(=O)c(C(=O)O)cn(C3CC3)c12
Output: 0.1 to 0.78 µg/mL
